# test-summary: Cytotoxicity against human HaCaT cells assessed as reduction in cell viability incubated for 72 hrs by resazurin dye based assay
# Format: toxicity
IC50 at 72 h values for the compounds below.

{"compound": "CC(=O)OC[C@H]1O[C@@H](N=C=S)[C@H](OC(C)=O)[C@@H](S(C)(=O)=O)[C@@H]1OC(C)=O", "IC50 at 72 h / µM": 40.1}
{"compound": "CC(=O)OC[C@H]1O[C@@H](N=C=S)[C@H](OC(C)=O)[C@@H]([S+](C)[O-])[C@@H]1OC(C)=O (mixture of isomers)", "IC50 at 72 h / µM": 180}
{"compound": "CC(=O)OC[C@H]1O[C@@H](N=C=S)[C@H](OC(C)=O)[C@@H]([S@@+]([O-])c2ccccc2)[C@@H]1OC(C)=O", "IC50 at 72 h / µM": 59.1}
{"compound": "CSCCCN=C=S", "IC50 at 72 h / µM": 43.9}
{"compound": "CC[S+]([O-])[C@@H]1[C@@H](OC(C)=O)[C@H](N=C=S)O[C@H](COC(C)=O)[C@H]1OC(C)=O (mixture of isomers)", "IC50 at 72 h / µM": 141}
{"compound": "CC(=O)OC[C@H]1O[C@@H](N=C=S)[C@H](OC(C)=O)[C@@H](S(=O)(=O)c2ccccc2)[C@@H]1OC(C)=O", "IC50 at 72 h / µM": 27.5}
{"compound": "CC(=O)OC[C@H]1O[C@@H](N=C=S)[C@H](OC(C)=O)[C@@H]([S@+]([O-])c2ccccc2)[C@@H]1OC(C)=O", "IC50 at 72 h / µM": 61.2}
